Recorded values, source PubChem BioAssay (NCI).

tested on: PC-3 prostate; assay: NCI-60 one-dose screen, 48 h (100 = growth as untreated, 0 = no growth, -100 = all killed); conditions: 10 µM unless noted
The panel holds about 83,000 compounds, 20% with a hit somewhere; the sample as a whole holds those more often.
In this section, each of the molecules is paired with its reported growth.
Report the value in % with no unit label.

These recorded examples may help you get a feel for the data.
1) CS(=O)(=O)c1ccc(-n2nc(C(=O)NCc3ccccc3)cc2-c2ccc(Cl)cc2)cc1
75.5
2) Oc1ccc(F)c(Nc2nc(SCCN3CCOCC3)nc3c2cnn3CC(Cl)c2ccc(Br)cc2)c1 (centres undefined)
7.79
3) CNc1nc2ccccc2n2c(-c3ccc(O)c(O)c3)cnc12
31.7

Looking up "C=CCSc1nnc(-c2ccc(-c3nc4ccc(Cl)cc4[nH]3)cc2)o1" , I found its growth recorded as 63.2

Consider N#CC1=C(c2cccs2)Nc2c(c(-c3ccccc3)nn2-c2ccccc2)C12C(=O)Nc1ccccc12 (centres undefined) . Its measured growth is 6.98
